Source: the supplement of paper PMC11061612

Test system: L-363 (Plasma Cell Myeloma);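 further: after 72 h of two-drug dosing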
Test: Bliss excess, mean over the matrix (fraction); higher = more synergy
Please provide measured Bliss excess for the entries that follow.
# answer = number (no unit)

Jot down Bliss excess (L-363 (Plasma Cell Myeloma)) of CN(C)CCCOc1ccc(-c2ccc3ncc4c(c3c2)n(C2CCOCC2)c(=O)n4C)cn1 [AZD0156] + C=CCn1c(=O)c2cnc(Nc3ccc(N4CCN(C)CC4)cc3)nc2n1-c1cccc(C(C)(C)O)n1 [AZD1775] (first compound max 1 µM, partner max 1 µM) .
0.0057

Jot down Bliss excess (L-363 (Plasma Cell Myeloma)) of CC1(C)CCC(CN2CCN(c3ccc(C(=O)NS(=O)(=O)c4ccc(NCC5CCOCC5)c([N+](=O)[O-])c4)c(Oc4cnc5[nH]ccc5c4)c3)CC2)=C(c2ccc(Cl)cc2)C1 [Venetoclax] + C=CCn1c(=O)c2cnc(Nc3ccc(N4CCN(C)CC4)cc3)nc2n1-c1cccc(C(C)(C)O)n1 [AZD1775] (first compound max 1 µM, partner max 1 µM) .
0.0933

Jot down Bliss excess (L-363 (Plasma Cell Myeloma)) of O=C(c1cc(Cc2n[nH]c(=O)c3ccccc23)ccc1F)N1CCN(C(=O)C2CC2)CC1 [Olaparib] + COc1nnc2ccc(N3CCC(c4ccc(OCCN5CCN(C)C(=O)[C@H]5C)cc4)CC3)nn12 [AZD5153] (first compound max 10 µM, 7x7, partner max 1 µM) .
0.0357

Jot down Bliss excess (L-363 (Plasma Cell Myeloma)) of CS(=O)(=O)CCNCc1ccc(-c2ccc3ncnc(Nc4ccc(OCc5cccc(F)c5)c(Cl)c4)c3c2)o1 [Lapatinib] + NC1(c2ccc(-c3nc4ccn5c(=O)[nH]nc5c4cc3-c3ccccc3)cc2)CCC1 [MK-2206] (first compound max 10 µM, 7x7, partner max 10 µM) .
0.026
